Tgt: T1, human ROR2 expressed on the cell surface (human, UniProt Q01974 34-943)
T1 construct: Endogenous ROR2 of human tumour cell lines; also called cell surface ROR2; ROR2 on tumour cell lines
Protocol notes: flow cytometry, IMR32 cells (neuroblastoma)
Parameters: unit not given here
Measured metric: binding intensity

Binder: ROR2-27 full length human IgG1 antibody (antibody, V domains shown, also called clone #27; clone #027 IgG1) VH: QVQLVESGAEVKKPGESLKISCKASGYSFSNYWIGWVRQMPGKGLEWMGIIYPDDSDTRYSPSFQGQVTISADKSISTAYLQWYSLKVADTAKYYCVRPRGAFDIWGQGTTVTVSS VL: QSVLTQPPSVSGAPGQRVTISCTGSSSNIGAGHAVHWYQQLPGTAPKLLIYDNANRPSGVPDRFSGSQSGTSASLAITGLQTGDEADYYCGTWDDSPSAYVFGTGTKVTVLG
Measured metric: binding intensity
Observed: 16
